Assignment: determine reported MIC for the given molecules.
Tested on: Carbapenem-resistant Acinetobacter baumannii (CRAB, Acinetobacter baumannii)
assay_name: Test Example 2: antibacterial activity test (MIC)
Format: cell-based
applied_conditions: ID-CAMHB, FDA-CDC AR-BANK #0063 (OXA-23, OXA-65, OXA-24, sul2), read-out: ID-CAMHB, MIC
Answers are plain numbers, in µg/mL.

Dear colleague, please send me the reported MIC for CC(C)(O/N=C(\C(=O)N[C@@H]1C(=O)N2C(C(=O)[O-])=C(C[N+]3(CC4(NC(=O)c5ccc(O)c(O)c5Cl)CC4)CCCC3)CS[C@H]12)c1csc(N)n1)C(=O)O [Compound 2] when you can.
16

Dear colleague, please send me the reported MIC for CC(C)(O/N=C(\C(=O)N[C@@H]1C(=O)N2C(C(=O)[O-])=C(C[N+]3(CCNC(=O)c4ccc(O)c(O)c4Cl)CCCC3)CS[C@H]12)c1csc(N)n1)C(=O)O [Cefiderocol, reference compound] when you can.
8

Continuing:
Dear colleague, please send me the reported MIC for CC(C)(O/N=C(\C(=O)N[C@@H]1C(=O)N2C(C(=O)O)=C(C[N+]3(CCNC(=O)c4ccc5cc(O)c(O)cc5c4)CCCC3)CS[C@H]12)c1csc(N)n1)C(=O)O [Compound 8] when you can.
8

====

Assignment: determine reported MIC for the given compounds.
Tested on: Carbapenem-resistant Enterobacteriaceae (CRE)
assay_name: Test Example 1: antibacterial activity test (MIC)
Format: cell-based
applied_conditions: CRE strain No. 110525
Numbers only, in µg/mL.

Dear colleague, please send me the reported MIC for CC(C)(O/N=C(\C(=O)N[C@@H]1C(=O)N2C(C(=O)[O-])=C(C[N+]3(CCNC(=O)c4ccc(O)c(O)c4Cl)CCCC3)CS[C@H]12)c1csc(N)n1)C(=O)O [Cefiderocol, reference compound] when you can.
6

Now, please, on to the next compound.
Dear colleague, please send me the reported MIC for `CON(CC[N+]1(CC2=C(C(=O)O)N3C(=O)[C@@H](NC(=O)/C(=N\OC(C)(C)C(=O)O)c4csc(N)n4)[C@H]3SC2)CCCC1)C(=O)c1ccc(O)c(O)c1Cl` when you can.
16

====

Test system: Carbapenem-resistant Acinetobacter baumannii (CRAB)
assay_name: Test Example 1: antibacterial activity test (MIC)
Type: cell-based
applied_conditions: CRAB strain No. 100333
Assignment: determine reported MIC for the given compounds.

Below are worked cases with known answers.
Dear colleague, please send me the reported MIC for CC(C)(O/N=C(\C(=O)N[C@@H]1C(=O)N2C(C(=O)[O-])=C(C[N+]3(CCCC[C@H](N)C(=O)O)CCCC3)CSC12)c1csc(N)n1)C(=O)O (stereo partly drawn) when you can.
> 32 µg/mL

Dear colleague, please send me the reported MIC for `CC(C)(O/N=C(\C(=O)N[C@@H]1C(=O)N2C(C(=O)[O-])=C(C[N+]3(CC4(NC(=O)c5ccc(O)c(O)c5Cl)CC4)CCCC3)CS[C@H]12)c1csc(N)n1)C(=O)O` when you can.
2 µg/mL

Now, please, on to the next compound.
Dear colleague, please send me the reported MIC for C[C@@H](O)[C@H]1C(=O)N2C(C(=O)O)=C(S[C@@H]3CN[C@H](C(=O)N(C)C)C3)[C@H](C)[C@H]12 [Meropenem, reference compound] when you can.
> 32 µg/mL
